Each item that follows carries a reported nuclei count.
Assay: endothelial E-selectin expression blockers – imaging, HUVEC, immunofluorescence, MLSMR starter and 10KST1 sets, primary screen (AID 487);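 also: 100% = median nuclei count of all wells on the same plate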
Details: HUVEC TNFalpha-induced E-selectin immunofluorescence imaging, at 2 µM; measured here: cell number, toxicity
Just the number please, in %, no unit attached.

Record excerpt, results attached:
# COMPOUND, RESULT_VALUE
rows = [
    ("CN(CCCNC(=O)c1cn(C)c2ccc(S(=O)(=O)N(C)C)cc2c1=O)c1ccccc1", 94.2),
    ("CCCC(=O)Nc1nc2ccc(S(N)(=O)=O)cc2s1", 100),
    ("O=C(O)c1ccc2c3c(ncnc13)-c1ccccc1C2=O", 93),
    ("N#Cc1nc(-c2ccco2)oc1NCCc1ccccc1", 107),
    ("O=C(CSc1nc(-c2ccccc2)cs1)NC(=O)NCc1ccco1", 125),
    ("CC(NC(=O)Cc1cccs1)c1ccc2c(c1)OCO2 (configuration not stated)", 109),
    ("CCCCCSc1nc2c(cnn2-c2ccccc2)c(=O)[nH]1", 125),
    ("Nc1sccc1C(=O)c1ccc(Cl)cc1", 103),
    ("COc1ccc(OC)c(CNC(=O)COc2cc(=O)n(C)c3ccccc23)c1", 100),
    ("CC1=C(C(=O)NCc2ccccc2)C(c2ccccc2OCC(N)=O)NC(=O)N1 (configuration not stated)", 98.2),
]

Ask | Read the entry O=C1CCCC2=C1C1(CCCC1)N=C(Nc1nc3ccccc3s1)N2 and write its reported nuclei count.
Reply | 117

Ask | Using known records, supply nuclei count for COc1ccc(S(=O)(=O)N2CCSC2c2ccccc2)cc1 (configuration not stated)
Reply | 97.9

Ask | Could you please provide reported nuclei count for Cn1c(=N)n(CC(=O)O)c2ccccc21 ? Thanks!
Reply | 131

----------
This listing pairs molecules with measured inhibition.
Test: TLR3 IRF3 reporter activation blockers – cell-based, poly I:C stimulus, luciferase, 10K MLSCN set, primary screen (AID 602277)
Settings: HEK293-TLR3 RL24 IRF3 luciferase reporter, at 10 µM, stronger effect = higher value
Respond with the bare value in %.

# MOLECULE, VALUE_UNITS, inhibition
measured = [
    ("COc1ccccc1OCCCn1c(=O)oc2ccccc21", "%", -42.9),
    ("CCOC(=O)c1c(C)[nH]c(C(=O)Cn2c(=O)oc3ccccc32)c1C", "%", -12.4),
    ("Cc1nc(N)c(C#N)c(-c2cccnc2)c1C", "%", -5.6),
]

Ask | Consider the molecule Cc1nc2cc(-n3ccc(=O)cc3)ccc2n1-c1ccccc1 and give its recorded inhibition.
Reply | 99

Ask | Annotate the molecule CC1=C(C(=O)OCc2ccccc2)C(c2ccco2)n2ncnc2N1 (stereo unspecified) with its measured inhibition.
Reply | 25.1

Ask | Provide only the value of recorded inhibition for CC(C)(O)C#Cc1ccc(C(=O)N2CCN(C(=O)c3ccco3)CC2)cc1
Reply | 13.5

----------
Biological target: Alpha-2C adrenergic receptor (Homo sapiens) (UniProt P18825)
Sequence (P18825 whole entry, looked up): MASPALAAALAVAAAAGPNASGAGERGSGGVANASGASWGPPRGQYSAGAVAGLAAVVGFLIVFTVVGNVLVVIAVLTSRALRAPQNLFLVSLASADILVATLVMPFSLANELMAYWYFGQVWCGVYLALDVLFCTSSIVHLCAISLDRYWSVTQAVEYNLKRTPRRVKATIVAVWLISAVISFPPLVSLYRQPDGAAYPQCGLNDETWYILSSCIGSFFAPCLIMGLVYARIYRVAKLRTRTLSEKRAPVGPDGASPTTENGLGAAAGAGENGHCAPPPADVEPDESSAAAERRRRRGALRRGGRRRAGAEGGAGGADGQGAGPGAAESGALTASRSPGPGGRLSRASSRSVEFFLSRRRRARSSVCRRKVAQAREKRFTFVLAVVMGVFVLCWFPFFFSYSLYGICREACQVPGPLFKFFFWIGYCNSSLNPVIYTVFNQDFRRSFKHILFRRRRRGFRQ
Experiment: compounds altering alpha2C-coupled GIRK flux – cell-based, HEK293 alpha2C/GIRK1/2, thallium flux, primary screen (AID 624);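 also: slope of fluorescence ratio to pre-addition baseline per second over 15 to 24 s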
Details: thallium flux BTC fluorescence, at 10 µM, actives lie on both sides
ATTRIBUTE_MEASURED: slope
Form field (numeric): enter value without unit.

Answered cases to consult:
# COMPOUND, slope
records = [
    ("CCOC(=O)C1CCN(C(=O)COc2ccc(Cl)cc2Cl)CC1", 0.00593),
    ("Cc1ccc(S(=O)(=O)NCCOC(=O)Nc2sc(=S)n(C)c2C)cc1", 0.00618),
    ("CCCCn1c(NCCC)nc2c1c(=O)[nH]c(=O)n2C", 0.00598),
    ("Cc1cc(=O)[nH]c(=S)n1-c1ccccc1", 0.00585),
]

Ask | Return slope for the following compound: CCCn1c(=O)c2ccccc2n2c(SCCOc3ccccc3F)nnc12
Reply | 0.00598

Ask | Give the value of slope reported for the following: CCC(C)NC(=O)c1cc(CC(C)C)on1 (configuration not stated)
Reply | 0.00602

Ask | Give the reported value of slope for this record: CCn1c(SCC(=O)Nc2cccc(C)c2)nc2c(c1=O)SC(C)C2 (configuration not stated)
Reply | 0.00615
